Target: human ROR1 on stably transfected cells (NCI-H1993-ROR1, MDA-MB-468-ROR1, NCI-H1975-ROR1, 293T-ROR1-NF-kB) (human, UniProt Q01973 30-937)
Sequence (Q01973 30-937 limits assumed): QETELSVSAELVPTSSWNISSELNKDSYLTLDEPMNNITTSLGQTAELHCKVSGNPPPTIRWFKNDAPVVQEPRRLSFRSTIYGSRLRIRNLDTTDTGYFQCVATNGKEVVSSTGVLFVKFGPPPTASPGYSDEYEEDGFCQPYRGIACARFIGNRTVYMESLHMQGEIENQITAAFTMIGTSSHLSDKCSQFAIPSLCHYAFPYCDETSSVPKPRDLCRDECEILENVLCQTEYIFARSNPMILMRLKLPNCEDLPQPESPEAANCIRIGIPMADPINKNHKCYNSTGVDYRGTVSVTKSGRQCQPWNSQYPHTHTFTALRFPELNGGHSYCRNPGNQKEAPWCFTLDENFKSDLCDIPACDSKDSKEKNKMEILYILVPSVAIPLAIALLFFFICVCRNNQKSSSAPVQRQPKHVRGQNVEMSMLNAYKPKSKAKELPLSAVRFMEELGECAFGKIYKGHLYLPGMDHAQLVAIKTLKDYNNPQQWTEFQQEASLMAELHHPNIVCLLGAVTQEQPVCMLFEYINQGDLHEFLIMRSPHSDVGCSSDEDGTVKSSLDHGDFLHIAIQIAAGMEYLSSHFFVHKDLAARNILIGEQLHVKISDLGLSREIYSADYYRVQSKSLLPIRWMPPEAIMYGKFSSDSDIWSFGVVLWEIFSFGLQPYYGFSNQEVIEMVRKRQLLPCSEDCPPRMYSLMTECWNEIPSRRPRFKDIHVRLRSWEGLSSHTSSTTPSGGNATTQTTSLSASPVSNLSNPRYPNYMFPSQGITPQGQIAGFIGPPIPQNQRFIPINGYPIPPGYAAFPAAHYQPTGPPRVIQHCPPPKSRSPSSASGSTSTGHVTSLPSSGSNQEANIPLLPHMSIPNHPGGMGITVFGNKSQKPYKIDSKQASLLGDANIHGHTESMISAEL
Experiment: cell-based or functional assay
property measured: Internalization EC50 (nM), NCI-H1993-ROR1 cells, pH-dependent endocytosis reagent, FACS
Kindly answer with a numeric value in nM, unit omitted.

Illustrative cases are given below, each with its answer.
hz29H5D8-3.2 (antibody, human IgG1, kappa, V domains shown, Humanized, human IgG1/kappa) VH: QVQLVQSGAEVKKPGSSVKVSCKASGYTFTNYGISWVRQAPGQGLEWMGEIYPRSVNTYYSAKFKGRVTITADKSTSTAYMELSSLRSEDTAVYYCARHYYGSSLDYWGQGTLVTVSS VL: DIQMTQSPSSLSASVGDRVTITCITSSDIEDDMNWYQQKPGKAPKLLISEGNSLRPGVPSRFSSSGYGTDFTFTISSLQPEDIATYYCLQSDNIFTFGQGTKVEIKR :: 1.18
hz135A2B10-1.1 (antibody, human IgG1, kappa, V domains shown, Humanized, human IgG1/kappa) VH: QVQLVESGGGLVQPGGSLRLSCAASGFAFSTYGMAWVRQAPGKGLEWVASIHKGGFSTYYPDNVKGRFTISRDNAKNSLYLQMNSLRAEDTAVYYCARHDWDGAMDYWGQGTLVTVSS VL: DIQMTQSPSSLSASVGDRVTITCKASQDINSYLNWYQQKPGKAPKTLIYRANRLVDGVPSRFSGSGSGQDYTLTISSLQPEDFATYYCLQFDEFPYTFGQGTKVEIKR :: 1.16
UC-961 (antibody, V domains shown) VH: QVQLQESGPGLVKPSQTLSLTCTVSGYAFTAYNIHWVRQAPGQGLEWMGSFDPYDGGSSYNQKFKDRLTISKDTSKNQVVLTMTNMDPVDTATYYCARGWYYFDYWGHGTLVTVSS VL: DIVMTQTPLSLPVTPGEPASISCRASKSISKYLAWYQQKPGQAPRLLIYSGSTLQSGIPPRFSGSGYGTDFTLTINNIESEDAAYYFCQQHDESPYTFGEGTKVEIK :: 2.06

// next entry
// Internalization EC50 (nM), NCI-H1993-ROR1 cells, pH-dependent endocytosis reagent, FACS lookup, binder = hz137G11D10-2.1 (antibody, human IgG1, kappa, V domains shown, Humanized, human IgG1/kappa) VH: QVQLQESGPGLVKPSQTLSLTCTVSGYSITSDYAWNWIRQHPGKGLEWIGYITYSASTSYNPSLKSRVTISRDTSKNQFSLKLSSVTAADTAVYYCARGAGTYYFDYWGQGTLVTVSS VL: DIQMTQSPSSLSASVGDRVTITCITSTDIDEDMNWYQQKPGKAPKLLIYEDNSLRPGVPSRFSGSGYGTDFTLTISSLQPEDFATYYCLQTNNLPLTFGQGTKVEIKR , result: 1.24

Cited source: patent EP4772535A1
